Documented GI50 across a set of compounds
- System: KM12
- protocolSummary: NCI tumour cell line growth inhibition, 48 h
Calls of active or inactive are those of the source. No stated cut-off is given here; in the data, active = GI50 up to about 1.1 µM and inactive = higher.
propertyLabel: GI50

1. CC1C[C@]2(C)C(=O)Nc3ccccc3[C@@H]2Nc2ccccc21 (some centres undefined): 17.9 µM (inactive)
2. CC1(C)C=C(S(=O)(=O)c2ccccc2)Oc2ccccc2O1: 43.6 µM (inactive)
3. CC(=O)OCC1OC(n2cc(F)c(=O)[nH]c2=O)C(N)C(OC(C)=O)C1OC(C)=O (centres undefined): > 100 µM (inactive)
4. C#CCn1c(=O)c(I)cn(/C(=C\C(=O)OCC)C(=O)OCC)c1=O: 17.3 µM (inactive)
5. CCn1cc2c(=O)n3ncn(-c4ccc(Br)cc4)c3nc2n1: > 100 µM (inactive)
6. C=C1C(NC)CCC23CC24CCC2(C)C(C(C)=O)C(O)CC2(C)C4CCC13 (centres undefined): 56.1 µM (inactive)
7. Cc1[nH]c(=O)[nH]c(=O)c1/C=C/C(=O)NC(CO)C[S+]([O-])C[S+](C)[O-] (centres undefined): 18.4 µM (inactive)
8. Oc1c(C(O)c2ccccn2)ccc2ccccc12 (centres undefined): 54.1 µM (inactive)
9. COc1ccc(OC)c(-c2cn3c(n2)sc2ccccc23)c1: > 100 µM (inactive)

---

- System: HOP-92
- protocolSummary: NCI tumour cell line growth inhibition, 48 h
The source made the active and inactive calls. No stated cut-off is given here; in the data, active = GI50 up to about 1.1 µM and inactive = higher.
Documented GI50 across a set of compounds
propertyLabel: GI50

1. CCC12C=CCN3CCC4(C(=C(C(=O)OC)[C@@H]1O)Nc1ccccc14)C32 (stereo not given in full): 1.6 µM (inactive)
2. O=c1[nH]c2c(c(=O)[nH]1)SC(c1ccccc1)C2 (stereo not given): > 100 µM (inactive)
3. C[C@]12CC[C@H](O)CC1=CC[C@@H]1[C@@H]2CC[C@]2(C)C(=O)/C(=C/c3ccc([N+](=O)[O-])cc3)C[C@@H]12: 9.16 µM (inactive)
4. CCN(CC)N1C(=O)[N-][N+](CC)(CC)C1=O: > 100 µM (inactive)
5. CCOC(=O)c1nc2ccc(C(F)(F)F)cc2nc1Nc1ccc(Cl)c(Cl)c1: > 100 µM (inactive)

---

- Tested on: SK-OV-3
- protocolSummary: NCI tumour cell line growth inhibition, 48 h
Active and inactive are the calls of the source. Cut-off read from the data, not from the text of the source: active = GI50 up to about 1.1 µM and inactive = higher.
Outcomes: y for active, n for inactive

1) CCCCc1c2c(nc3c1CCc1cc(C=O)c(N)nc1-3)/C(=C/c1ccccc1)CCC2: n
2) COC(=O)[C@@H]1C[C@H](c2ccc(OC)c(OC)c2)OC1=O.COC(=O)[C@H]1C[C@H](c2ccc(OC)c(OC)c2)OC1=O: n
3) c1cncc(C2N3CCCCC3[C@@H]3c4[nH]c5ccccc5c4CCN23)c1 (stereo partly specified): n
4) FC(F)(F)c1cc(Cl)cnc1N/N=C(/c1ccccc1)c1ccccn1: n
5) O=c1onc2n1-c1cc(Cl)ccc1C(=S)N1CSCC21 (stereo unspecified): n
6) O=C(Nc1ccccc1[N+](=O)[O-])C(=O)C(C(=O)c1ccccc1-c1ccccc1)C1OC(=O)c2ccccc21 (stereo unspecified): n
7) CC(C)CCCC(C)[C@H]1CC[C@H]2[C@@H]3CC[C@H]4C[C@@H](CCC=C(c5cc(Cl)c(O)c(C(=O)OC(C)(C)C)c5)c5cc(Cl)c(O)c(C(=O)OC(C)(C)C)c5)CC[C@]4(C)[C@H]3CC[C@]12C (stereo partly specified): n
8) CC(C)OC(=O)NNc1cccc(Cl)c1: n
9) CN(CCCNC(=O)c1nn(C)c2c1Cc1ccccc1-2)CCCNC(=O)c1nn(C)c2c1Cc1ccccc1-2: n
10) COc1ccc(NC(=S)NNC(=O)c2cc(-c3ccccc3)nc3ccccc23)cc1: y
11) COc1ccc(C2C(N)=NCC2c2ccccn2)cc1 (stereo unspecified): n
12) CC1=NN(c2nc(N)nc(/C(C#N)=C\c3ccc(-c4ccc([N+](=O)[O-])cc4)o3)n2)C(C)(C)C1: n
13) CN(C)C(=S)/N=c1\ss/c(=N\S(=O)(=O)c2ccccc2)n1-c1ccccc1: n
14) CN1C(C(=O)Nc2ccccn2)=C(O)c2ccccc2S1(=O)=O: n
15) COC(=O)C(C(=O)C(=O)Nc1ccccc1C(C)=O)c1nc2ccc(Cl)cc2nc1O (stereo unspecified): n
16) CC(C)(C)c1ccc(OCCOCCOc2ccc(C(C)(C)C)cc2S(=O)(=O)Nc2ccc([N+](=O)[O-])cc2)c(S(=O)(=O)Nc2ccc([N+](=O)[O-])cc2)c1: n
17) O=C1N[C@H]2c3c(Cl)sc(Cl)c3[C@@H](O)[C@H]2O1: n
18) CCOC(=O)[C@@H]1ON2O[C@@H](OC3CCCC3(c3ccccc3)c3ccccc3)C[C@H]3OC(=O)[C@@H]1C32 (stereo partly specified): n
19) C/C(=N/N(C=O)C[n+]1ccccc1)C(CN(CC(C)C)CC(C)C)C(=O)Nc1ccc(C)cc1C (stereo unspecified): n
20) Cc1cc(S(=O)(=O)Nc2nc(N)nc(N(C)C)n2)c(SC(C(=O)O)c2ccccc2)cc1Cl (stereo unspecified): n
21) C/C(=N\O)c1ccc2ccc3ccccc3c2c1: n
22) CN(C)c1ccc(/C=N/c2ccc(Oc3ccc(Cl)cc3)c(Cl)c2)cc1: n
23) O=C(c1ccccc1)c1ccc(-n2c3ccccc3c3ccc4c(c32)C(=O)C=CC4=O)cc1: n
24) CC(=O)n1nc(-c2ccc3ccccc3c2)nc1C: n
25) C/C(N)=[N+](/C)[O-]: n
26) N[C@H]1C2C3CC4C5CC(C42)C1(c1ccccc1)C53 (stereo partly specified): n
27) CN(C)CC1CCCc2ccccc2C1=O (stereo unspecified): n
28) O=C(Nc1nc2ncn(CCI)c2c(=O)[nH]1)c1ccccc1: n
29) CC[C@]12C=CCN3CC[C@@]4(c5cc(N=O)c(OC)cc5N(C)[C@H]4[C@@](O)(C(=O)OC)[C@@H]1OC(C)=O)[C@@H]32: n
30) Nc1nc(F)nc2c1ncn2C1OC(CO)C(O)C1O (stereo unspecified): n
31) CN(C)C(=S)/N=c1\ssc(=S)n1Cc1ccccn1: n
32) CC1=CCC[C@@](C)(O)[C@@H]2C[C@H]3C(CSc4ccccc4)C(=O)O[C@H]3[C@@H](O2)[C@H](C)CCC1 (stereo partly specified): n
33) Oc1cc2c(cc1O)-c1[nH]ncc1CC2: n
34) c1ccc(C[N+]23C(CC[C@H]2c2ccccc2)CC[C@H]3c2ccccc2)cc1 (stereo partly specified): n
35) Cc1ccc([N+](=O)[O-])c2c(NCCC[N+](C)(C)[O-])c3ccccc3nc12: n
36) CCc1cccc(C)c1NC(=O)C(=O)Cc1nc2ccccc2s1: n

---

- Tested on: KM12
- protocolSummary: NCI tumour cell line growth inhibition, 48 h
The source made the active and inactive calls. Cut-off read from the data, not from the text of the source: active = GI50 up to about 1.1 µM and inactive = higher.
Documented GI50 across a set of compounds
propertyLabel: GI50

1) COC1C=C(NCC2(CO)CCC2)N=C(N)N1 (centres undefined): > 100 µM (inactive)
2) COC(=O)[C@@H]1c2[nH]c3ccccc3c2C[C@@H]2c3ccccc3NC(=O)[C@@H]21: > 100 µM (inactive)
3) N/N=C1\C(=O)N(C2CCCCCC2)C(=O)C1C(=O)NC1CCCCCC1 (centres undefined): 39.5 µM (inactive)
4) Oc1c(NCn2nc(CCCCCCCCc3nn(CNc4ccc5ccccc5c4O)c(=S)o3)oc2=S)ccc2ccccc12: 28.2 µM (inactive)

---

- Test system: HT-29
- protocolSummary: NCI tumour cell line growth inhibition, 48 h
Active and inactive are the calls of the source. No stated cut-off is given here; in the data, active = GI50 up to about 1.1 µM and inactive = higher.
Documented GI50 across a set of compounds
propertyLabel: GI50

1. CC1=NN(C(=O)c2ccc(Cl)cc2)C(=O)C1/N=N/c1ccc(S(=O)(=O)Nc2ncccn2)cc1 (centres undefined): > 100 µM (inactive)
2. Clc1ccc2c(Cl)ncnc2c1I: > 100 µM (inactive)
3. Cc1ccc(S(=O)(=O)Oc2nc3ccccc3nc2N(S(=O)(=O)c2ccc(C)cc2)S(=O)(=O)c2ccc(C)cc2)cc1: 28.2 µM (inactive)
4. O=C(CC1(O)C(=O)Nc2ccccc21)c1cccc(O)c1 (centres undefined): > 100 µM (inactive)

---

- Test system: K562
- protocolSummary: NCI tumour cell line growth inhibition, 48 h
Activity calls are given as the source filed them. Rule as the data show it: active = GI50 up to about 1.1 µM and inactive = higher.
Documented GI50 across a set of compounds
propertyLabel: GI50

1) C/C(=N\O)c1ccc2ccc3ccccc3c2c1: 25.5 µM (inactive)
2) OCc1nnn2c1CCC2: > 100 µM (inactive)
3) CO[C@H]1O[C@@H]2CO[C@@H](c3ccccc3)O[C@H]2C[C@]12CCC/C=C\CO2: 13.9 µM (inactive)
4) COC1CCCCN1C(=O)c1ccccc1 (configuration not stated): > 25.3 µM (inactive)
5) CC(=O)OC1CCC2C(=CCC3C2(C)C(=O)CC2(C)C(C4(C)OC(C(C)C)=CC4=O)C(O)CC32C)C1(C)C (configuration not stated): 35.5 µM (inactive)
6) Cc1ccc2c(/C=C/c3ccc(N(C)C)cc3)ccnc2c1C: 6.81 µM (inactive)
7) CCOC(=O)CCC(NC(=O)Cc1ccc(Oc2nc3ccccc3nc2-c2cccs2)cc1)C(=O)OCC (configuration not stated): > 100 µM (inactive)
